All figures here come from patent US5824699A.

Molecular target: human COX-1 (rhCOX-1) (Homo sapiens, UniProt P23219)
Sequence (P23219 24-599): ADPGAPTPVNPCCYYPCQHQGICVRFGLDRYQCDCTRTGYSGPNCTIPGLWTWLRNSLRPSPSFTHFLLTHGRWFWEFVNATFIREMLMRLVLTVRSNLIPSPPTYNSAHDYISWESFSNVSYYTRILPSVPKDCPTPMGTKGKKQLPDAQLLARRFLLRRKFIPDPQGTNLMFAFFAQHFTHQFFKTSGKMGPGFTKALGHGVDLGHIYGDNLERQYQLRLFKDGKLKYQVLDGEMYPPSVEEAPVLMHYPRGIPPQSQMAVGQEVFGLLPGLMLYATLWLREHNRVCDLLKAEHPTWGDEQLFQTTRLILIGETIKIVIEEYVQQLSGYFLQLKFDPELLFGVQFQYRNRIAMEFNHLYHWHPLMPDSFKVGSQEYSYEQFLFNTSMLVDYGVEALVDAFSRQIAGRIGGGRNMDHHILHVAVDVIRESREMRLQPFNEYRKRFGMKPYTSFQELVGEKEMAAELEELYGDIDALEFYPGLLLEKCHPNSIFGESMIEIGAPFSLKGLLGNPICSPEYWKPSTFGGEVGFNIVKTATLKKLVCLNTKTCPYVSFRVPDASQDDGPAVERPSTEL
Assay: inhibition of microsomal human recombinant COX-1 (PGH2 converted to PGF2a, quantified by EIA)
Details: Table 1; rhCOX-1; read-out: % Inhibition of rhCOX-1 (value in parentheses, IC50)
endpoint.name: IC50

Exercise: What is its IC50 for human COX-1 (rhCOX-1) (Homo sapiens, UniProt P23219)? Entry: CCc1cccc2c3c([nH]c12)C(CC)(CC(=O)O)OCC3=O (stereo not shown) [Example 4]
Solution: > 270 µM

====

Molecular target: human COX-2 (rhCOX-2) (Homo sapiens)
Construct: made in house; host or cells: Sf9 or CHO cells (microsomal preparation)
Sequence (P35354 18-604): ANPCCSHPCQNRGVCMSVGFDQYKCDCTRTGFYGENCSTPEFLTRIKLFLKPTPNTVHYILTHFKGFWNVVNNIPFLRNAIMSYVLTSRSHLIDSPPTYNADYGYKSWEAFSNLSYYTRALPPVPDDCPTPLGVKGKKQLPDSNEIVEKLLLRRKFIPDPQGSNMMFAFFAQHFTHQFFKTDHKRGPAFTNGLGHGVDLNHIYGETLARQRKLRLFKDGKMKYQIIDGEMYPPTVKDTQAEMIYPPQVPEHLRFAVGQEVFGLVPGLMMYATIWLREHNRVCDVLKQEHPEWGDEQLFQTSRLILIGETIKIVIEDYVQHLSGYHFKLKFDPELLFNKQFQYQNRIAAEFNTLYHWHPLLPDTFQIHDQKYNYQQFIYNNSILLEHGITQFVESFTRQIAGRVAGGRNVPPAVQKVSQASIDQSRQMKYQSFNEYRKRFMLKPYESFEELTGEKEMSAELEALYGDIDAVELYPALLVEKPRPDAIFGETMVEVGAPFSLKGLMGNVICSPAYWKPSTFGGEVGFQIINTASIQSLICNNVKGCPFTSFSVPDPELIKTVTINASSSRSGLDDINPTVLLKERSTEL
Assay: inhibition of microsomal human recombinant COX-2 (PGH2 converted to PGF2a, quantified by EIA)
Type: biochemical
Settings: Table 2; rhCOX-2, value in parentheses = IC50; 30 μM arachidonic acid; read-out: % Inhib of rhCOX-2 (IC50)
endpoint.name: IC50
// return the numeric value with its unit appended

CCc1cccc2c3c([nH]c12)C(CC)(CC(=O)O)CCC3=O (centres unmarked)	2 µM

Attention now shifts to the item below.
Exercise: What is its IC50 for human COX-2 (rhCOX-2) (Homo sapiens)? Entry: CCC1(CC(=O)O)CCC(=O)c2c1[nH]c1c(F)c(F)ccc21 (centres unmarked)
Solution: 0.7 µM
